Cited source for all entries: ChEMBL document CHEMBL1134320

- Target Of Assay: Receptor-type tyrosine-protein phosphatase beta (Homo sapiens)
- Sequence (P23467 whole entry): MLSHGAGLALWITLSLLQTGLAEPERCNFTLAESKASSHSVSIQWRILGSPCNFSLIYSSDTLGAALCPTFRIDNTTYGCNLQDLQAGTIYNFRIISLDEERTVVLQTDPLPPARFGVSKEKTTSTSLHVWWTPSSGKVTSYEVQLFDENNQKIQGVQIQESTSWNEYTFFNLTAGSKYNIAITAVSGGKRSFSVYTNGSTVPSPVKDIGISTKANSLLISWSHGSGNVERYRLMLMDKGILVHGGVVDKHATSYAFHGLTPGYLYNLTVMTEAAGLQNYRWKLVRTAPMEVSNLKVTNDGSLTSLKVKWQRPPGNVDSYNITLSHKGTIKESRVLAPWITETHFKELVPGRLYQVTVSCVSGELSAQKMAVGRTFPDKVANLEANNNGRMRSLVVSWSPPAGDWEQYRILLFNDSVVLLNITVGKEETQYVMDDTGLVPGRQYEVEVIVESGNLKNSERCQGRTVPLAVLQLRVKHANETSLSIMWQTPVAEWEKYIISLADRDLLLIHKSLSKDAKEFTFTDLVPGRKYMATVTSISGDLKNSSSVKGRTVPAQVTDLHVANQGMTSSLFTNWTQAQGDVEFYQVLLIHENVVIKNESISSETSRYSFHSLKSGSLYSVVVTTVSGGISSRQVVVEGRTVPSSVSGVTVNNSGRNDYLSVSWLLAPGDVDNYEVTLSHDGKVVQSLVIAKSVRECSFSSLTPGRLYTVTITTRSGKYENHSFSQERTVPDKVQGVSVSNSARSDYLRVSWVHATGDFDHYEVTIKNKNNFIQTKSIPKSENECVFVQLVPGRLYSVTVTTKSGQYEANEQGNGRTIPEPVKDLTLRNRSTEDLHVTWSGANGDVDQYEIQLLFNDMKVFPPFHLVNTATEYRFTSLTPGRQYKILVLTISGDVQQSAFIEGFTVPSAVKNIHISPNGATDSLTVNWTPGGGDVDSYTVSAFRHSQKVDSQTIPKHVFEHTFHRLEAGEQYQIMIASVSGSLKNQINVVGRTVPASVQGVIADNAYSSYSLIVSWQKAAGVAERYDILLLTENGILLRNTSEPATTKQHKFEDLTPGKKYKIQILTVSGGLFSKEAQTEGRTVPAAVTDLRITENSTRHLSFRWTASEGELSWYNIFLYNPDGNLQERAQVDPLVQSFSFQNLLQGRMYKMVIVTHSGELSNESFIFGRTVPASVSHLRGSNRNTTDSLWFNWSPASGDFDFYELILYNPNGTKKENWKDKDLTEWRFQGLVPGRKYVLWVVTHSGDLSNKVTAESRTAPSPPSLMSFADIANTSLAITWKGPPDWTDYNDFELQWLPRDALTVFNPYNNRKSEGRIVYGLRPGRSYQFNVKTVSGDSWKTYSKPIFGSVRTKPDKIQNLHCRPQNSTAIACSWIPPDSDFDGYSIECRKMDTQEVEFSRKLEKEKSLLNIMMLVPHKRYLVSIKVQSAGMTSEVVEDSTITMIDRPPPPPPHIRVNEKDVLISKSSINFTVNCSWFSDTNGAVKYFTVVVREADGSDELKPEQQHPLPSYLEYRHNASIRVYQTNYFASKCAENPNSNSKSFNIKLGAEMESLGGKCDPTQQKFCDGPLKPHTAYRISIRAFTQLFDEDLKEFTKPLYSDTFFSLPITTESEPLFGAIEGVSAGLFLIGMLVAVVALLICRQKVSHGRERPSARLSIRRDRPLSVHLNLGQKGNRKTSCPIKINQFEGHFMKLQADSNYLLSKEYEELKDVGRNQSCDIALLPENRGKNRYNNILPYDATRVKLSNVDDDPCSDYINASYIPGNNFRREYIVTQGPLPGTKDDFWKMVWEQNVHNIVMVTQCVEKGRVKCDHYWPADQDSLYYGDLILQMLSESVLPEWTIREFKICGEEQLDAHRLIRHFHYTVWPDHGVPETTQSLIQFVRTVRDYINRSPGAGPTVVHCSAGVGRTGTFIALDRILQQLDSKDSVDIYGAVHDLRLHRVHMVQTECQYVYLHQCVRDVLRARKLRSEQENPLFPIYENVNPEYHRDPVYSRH
Parameter Measured: pIC50
One number for each entry, as −log10 of the molar value.

# O=P(O)(O)C(F)(F)c1ccc(COc2ccccc2OCc2ccc(C(F)(F)P(=O)(O)O)cc2)cc1 with Receptor-type tyrosine-protein phosphatase beta (Homo sapiens): pIC50 is 4.11

====

Protein target, amino acids: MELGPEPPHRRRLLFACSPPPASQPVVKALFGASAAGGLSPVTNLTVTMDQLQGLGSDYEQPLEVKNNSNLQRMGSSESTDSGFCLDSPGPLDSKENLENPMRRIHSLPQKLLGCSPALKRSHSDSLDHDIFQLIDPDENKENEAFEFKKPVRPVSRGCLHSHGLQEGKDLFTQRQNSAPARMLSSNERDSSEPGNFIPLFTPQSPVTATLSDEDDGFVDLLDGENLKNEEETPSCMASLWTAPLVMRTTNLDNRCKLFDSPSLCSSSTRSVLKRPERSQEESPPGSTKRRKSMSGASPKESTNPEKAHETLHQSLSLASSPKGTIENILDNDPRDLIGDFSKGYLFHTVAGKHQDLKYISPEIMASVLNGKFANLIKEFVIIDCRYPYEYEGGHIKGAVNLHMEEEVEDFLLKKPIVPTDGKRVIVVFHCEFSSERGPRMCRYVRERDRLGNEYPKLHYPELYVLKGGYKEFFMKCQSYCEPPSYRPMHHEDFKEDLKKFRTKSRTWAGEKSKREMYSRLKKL
Parameter Measured: IC50 (µM)
Answers are plain numbers, in µM.

Value of IC50 reported for the compound O=P(O)(O)C(F)(F)c1ccc(COc2ccc(OCc3ccc(C(F)(F)P(=O)(O)O)cc3)cc2)cc1 is 30

====

- Target Of Assay: Tyrosine-protein phosphatase non-receptor type 1 (Homo sapiens, UniProt P18031)
- Assay Summary: Binding affinity towards the binding site in PTP1B enzyme
Parameter Measured: Ki (nM)
Answers are plain numbers, in nM.

Entry under test: O=C(CCc1ccc(C(F)(F)P(=O)(O)O)cc1)Nc1cc(NC(=O)CCc2ccc(C(F)(F)P(=O)(O)O)cc2)cc(C(=O)NCc2ccc(C(=O)O)cc2)c1 . Its Ki was 930

====

- Target Of Assay: Tyrosine-protein phosphatase non-receptor type 1 (Homo sapiens, UniProt P18031)
- Sequence (P18031 whole entry): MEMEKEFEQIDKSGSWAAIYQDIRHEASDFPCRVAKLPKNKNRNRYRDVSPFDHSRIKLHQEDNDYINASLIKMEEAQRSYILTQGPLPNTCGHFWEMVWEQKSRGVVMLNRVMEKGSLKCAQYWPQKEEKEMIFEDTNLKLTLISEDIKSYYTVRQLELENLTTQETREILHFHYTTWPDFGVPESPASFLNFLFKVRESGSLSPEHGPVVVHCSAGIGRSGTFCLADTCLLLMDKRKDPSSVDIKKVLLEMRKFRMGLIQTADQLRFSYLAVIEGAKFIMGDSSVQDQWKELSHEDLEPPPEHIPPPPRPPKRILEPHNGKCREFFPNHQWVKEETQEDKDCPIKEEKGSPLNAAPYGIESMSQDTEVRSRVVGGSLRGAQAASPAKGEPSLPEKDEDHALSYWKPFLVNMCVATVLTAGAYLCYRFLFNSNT
- Assay Summary: Binding affinity towards the site of PTP1B enzyme
Parameter Measured: Ki (µM)
Answers are plain numbers, in µM.

Form: molecule = O=P(O)(O)C(F)(F)c1ccc(CCCCc2ccc(C(F)(F)P(=O)(O)O)cc2)cc1 ; Ki = 1.5
